Molecular target: T1, ActRIIa receptor-Fc fusion (UniProt P27037 20-134, limits assumed)
T1 construct: BMP receptor-Fc fusion used at 5 ug/mL
T1 sequence (P27037 20-134 limits assumed): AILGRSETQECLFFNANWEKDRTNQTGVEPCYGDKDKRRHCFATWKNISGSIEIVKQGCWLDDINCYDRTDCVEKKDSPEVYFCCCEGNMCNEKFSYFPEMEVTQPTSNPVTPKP
Assay: ELISA-like plate assay, captured BMP-7 from conditioned media, receptor-Fc detection
quantity.measured: ActRIIa binding (relative to wild type = 1.0)

Which ActRIIa binding (relative to wild type = 1.0) value is on record for BMP-7 variant S77P (ligand, In conditioned media; numbering on mature BMP-7) STGGKQRSQNRSKTPKNQEALRMASVAENSSSDQRQACKKHELYVSFRDLGWQDWIIAPEGYAAYYCEGECAFPLNPYMNATNHAIVQTLVHFINPETVPKPCCAPTQLNAISVLYFDDSSNVILKKYRNMVVRACGCH ? 1 relative to wild type

Which ActRIIa binding (relative to wild type = 1.0) value is on record for BMP-7 variant Y78S (ligand, In conditioned media; numbering on mature BMP-7) STGGKQRSQNRSKTPKNQEALRMASVAENSSSDQRQACKKHELYVSFRDLGWQDWIIAPEGYAAYYCEGECAFPLNSSMNATNHAIVQTLVHFINPETVPKPCCAPTQLNAISVLYFDDSSNVILKKYRNMVVRACGCH ? 1.58 relative to wild type

Which ActRIIa binding (relative to wild type = 1.0) value is on record for BMP-7 variant N76T (ligand, In conditioned media; numbering on mature BMP-7) STGGKQRSQNRSKTPKNQEALRMASVAENSSSDQRQACKKHELYVSFRDLGWQDWIIAPEGYAAYYCEGECAFPLTSYMNATNHAIVQTLVHFINPETVPKPCCAPTQLNAISVLYFDDSSNVILKKYRNMVVRACGCH ? 1.11 relative to wild type

Which ActRIIa binding (relative to wild type = 1.0) value is on record for BMP-7 variant W55N (ligand, In conditioned media; numbering on mature BMP-7) STGGKQRSQNRSKTPKNQEALRMASVAENSSSDQRQACKKHELYVSFRDLGWQDNIIAPEGYAAYYCEGECAFPLNSYMNATNHAIVQTLVHFINPETVPKPCCAPTQLNAISVLYFDDSSNVILKKYRNMVVRACGCH ? 0.41 relative to wild type

Which ActRIIa binding (relative to wild type = 1.0) value is on record for BMP-7 variant N76S (ligand, In conditioned media; numbering on mature BMP-7) STGGKQRSQNRSKTPKNQEALRMASVAENSSSDQRQACKKHELYVSFRDLGWQDWIIAPEGYAAYYCEGECAFPLSSYMNATNHAIVQTLVHFINPETVPKPCCAPTQLNAISVLYFDDSSNVILKKYRNMVVRACGCH ? 0.99 relative to wild type

Which ActRIIa binding (relative to wild type = 1.0) value is on record for BMP-7 variant Q53S (ligand, In conditioned media; numbering on mature BMP-7) STGGKQRSQNRSKTPKNQEALRMASVAENSSSDQRQACKKHELYVSFRDLGWSDWIIAPEGYAAYYCEGECAFPLNSYMNATNHAIVQTLVHFINPETVPKPCCAPTQLNAISVLYFDDSSNVILKKYRNMVVRACGCH ? 1.04 relative to wild type

Which ActRIIa binding (relative to wild type = 1.0) value is on record for BMP-7 variant R48E (ligand, In conditioned media; numbering on mature BMP-7) STGGKQRSQNRSKTPKNQEALRMASVAENSSSDQRQACKKHELYVSFEDLGWQDWIIAPEGYAAYYCEGECAFPLNSYMNATNHAIVQTLVHFINPETVPKPCCAPTQLNAISVLYFDDSSNVILKKYRNMVVRACGCH ? 0.34 relative to wild type
